Assay: Stat Signaling Pathway (AID 446);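 further: ME-180 cervical cancer cells given 40 pM IL-6 alongside compound; SIE-controlled beta-lactamase reporter measured as 460/530 nm FRET emission ratio; on the % scale 0 is the no-effect control and ±100 the full control effect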
Conditions: ME-180 SIE beta-lactamase reporter, IL-6 stimulated, 5 h; at 17.2 µM (top of the series)
Results filed as inconclusive are left out. The source made the active and inactive calls. The call rests on the fitted dose curve; in most records, active means well fitted curve in either direction with a large enough effect (not every such curve was filed as active); inconclusive means small, poorly fitted or top-dose-only effect, or another doubt; inactive means flat fitted curve, though single readings scatter.
assay metric: activity, negative = inhibition

smiles: CN(C)CC[C@@H](c1ccccc1)c1ccccn1
assay metric: activity, negative = inhibition
recorded value: 8.97% (inactive)

smiles: CC[C@H](NC(C)C)[C@H](O)c1ccc(O)c(O)c1
assay metric: activity, negative = inhibition
recorded value: 3.17% (inactive)

smiles: O=C(O)CNC(=O)[C@@H](CS)Cc1ccccc1
assay metric: activity, negative = inhibition
recorded value: 14.5% (inactive)

smiles: CN(Cc1cnc2nc(N)nc(N)c2n1)c1ccc(C(=O)N[C@H](CCC(=O)O)C(=O)O)cc1
assay metric: activity, negative = inhibition
recorded value: 8.48% (inactive)

smiles: CN(C)CC[C@H](c1ccc(Br)cc1)c1ccccn1
assay metric: activity, negative = inhibition
recorded value: -5.49% (inactive)

smiles: CN1CCc2cccc3c2[C@@H]1Cc1ccc(O)c(O)c1-3
assay metric: activity, negative = inhibition
recorded value: 1.07% (inactive)

smiles: O[C@@](CCN1CCCCC1)(c1ccccc1)C1CCCCC1
assay metric: activity, negative = inhibition
recorded value: -9.32% (inactive)

smiles: N[C@@H](CO)C(=O)NNCc1ccc(O)c(O)c1O
assay metric: activity, negative = inhibition
recorded value: -0.902% (inactive)

smiles: CC[C@]1(C)CC(=O)NC1=O
assay metric: activity, negative = inhibition
recorded value: 2.02% (inactive)

smiles: COc1ccc([C@H]2Sc3ccccc3N(CCN(C)C)C(=O)[C@H]2OC(C)=O)cc1
assay metric: activity, negative = inhibition
recorded value: -1.38% (inactive)

smiles: c1ccc([C@@H]2CN3CCSC3=N2)cc1
assay metric: activity, negative = inhibition
recorded value: -3.45% (inactive)

smiles: Cc1cccc(C)c1OC[C@H](C)N
assay metric: activity, negative = inhibition
recorded value: 3.2% (inactive)

smiles: COCCc1ccc(OC[C@H](O)CNC(C)C)cc1
assay metric: activity, negative = inhibition
recorded value: -1.97% (inactive)

smiles: CC[C@@]12CCCN3CCc4c(n(c5ccccc45)C(=O)C1)[C@H]32
assay metric: activity, negative = inhibition
recorded value: 14.6% (inactive)

smiles: C[C@@]12CCC(=O)C=C1CC[C@H]1[C@H]3CC[C@](O)(C(=O)CO)[C@]3(C)CC(=O)[C@@H]12
assay metric: activity, negative = inhibition
recorded value: 8.63% (inactive)

smiles: CN1C(=O)CC[C@@H]1c1cccnc1
assay metric: activity, negative = inhibition
recorded value: -1.06% (inactive)

----------
Assay: AP1 Signaling Pathway (AID 357);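 further: ME-180 reporter cells stimulated with EGF at its EC50 level; on the % scale 0 is the no-effect control and ±100 the full control effect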
Details: ME-180 (cervical carcinoma) AP-1-bla reporter, EGF-induced, beta-lactamase ratio, 5 h; at 7.69 µM (top of the series) unless noted
Records with an inconclusive call do not appear. Activity calls are given as the source filed them. Calls follow the shape of the dose curve; as a rule, active = well fitted curve in either direction with a large enough effect (not every such curve was filed as active); inconclusive = small, poorly fitted or top-dose-only effect, or another doubt; inactive = flat fitted curve, though single readings scatter.
Classes used: yes (1) = active, no (0) = inactive

smiles: O=C(c1cccc(F)c1)N1CCC2(CC1)CCN(C(c1ccccc1)c1ccccc1)CC2
discrete label: no (0)
--
smiles: CS(=O)(=O)Nc1cccc(-c2nc(N3CCOCC3)c3ccccc3n2)c1
discrete label: no (0)
--
smiles: CN1CCN(c2ncc3nc(-c4ccc(F)cc4)c(=O)n(C4CC4)c3n2)CC1
discrete label: no (0)
--
smiles: CN(Cc1ccco1)c1cc(-c2ccccc2C(F)(F)F)ncn1
discrete label: no (0)
--
smiles: CS(=O)(=O)N1CCC2(CC1)CN(c1ccccn1)C2
discrete label: no (0)
--
smiles: Cc1ccccc1-c1nccc(NCc2cccnc2)n1
discrete label: no (0)
--
smiles: COc1ccccc1-c1cc(NCc2cccs2)ncn1
discrete label: no (0)
--
smiles: CN(C)C(=O)c1ccc(-c2cc(NCc3cccs3)ncn2)cc1
discrete label: no (0)
--
smiles: COc1cccc(Cn2c(=O)c(-c3cc(F)cc(F)c3)nc3cnc(OC)nc32)c1
discrete label: no (0)
--
smiles: Cn1c(=O)c(-c2ccc(F)cc2)nc2cnc(Oc3ccccc3)nc21
discrete label: no (0)
--
smiles: COCCn1c(=O)cnc2cnc(N3CCOCC3)nc21
discrete label: no (0)
--
smiles: Cc1cccc(CNc2ncncc2-c2ccc(C(=O)N(C)C)cc2)c1
discrete label: no (0)
--
smiles: CN(C)C(=O)c1ccc(-c2cncnc2Nc2ccccc2)cc1
discrete label: no (0)
--
smiles: CS(=O)(=O)Nc1cccc(-c2cc(NCc3ccccc3)ncn2)c1
discrete label: no (0)
--
smiles: CC(C)NC(=O)N1CC[C@@]2(CCCN(C(=O)c3cccc(F)c3)C2)C1
discrete label: no (0)
--
smiles: CC(=O)NCCNc1ncnc2ccc(-c3ccccc3C#N)cc12
discrete label: no (0)
--
smiles: Cn1cc(-c2nc3cnc(Oc4ccccc4)nc3n(CCC#N)c2=O)c2ccccc21
discrete label: no (0)
--
smiles: COc1cccc(Cn2c(=O)c(-c3cc(F)cc(F)c3)nc3cnc(N4CCNCC4)nc32)c1
discrete label: yes (1)
--
smiles: COc1ncc2nc(-c3ccc(F)cc3)c(=O)n(CCc3ccccc3)c2n1
discrete label: no (0)
--
smiles: COc1ccc(CNc2ccnc(-c3ccc(N(C)C)cc3)n2)c(OC)c1
discrete label: no (0)
--
smiles: CN(Cc1ccco1)c1ncncc1-c1cccnc1
discrete label: no (0)
--
smiles: c1nc(NC2CC2)c2cc(-c3ccoc3)ccc2n1
discrete label: no (0)
--
smiles: Cc1noc(C)c1C(=O)N1CCC2(CC1)CN(c1ccccn1)C2
discrete label: no (0)

----------
Target: Dual specificity protein kinase CLK4 (Homo sapiens)
Test: qHTS Assay for Inhibitors of CDC-like Kinase 4 (Kinase-Glo Assay) (AID 1770); further: nearly all actives have a fitted effect of over 65% in size
Settings: recombinant Clk4, Kinase-Glo ATP depletion luminescence; series mostly up to 66.7 µM
Results filed as inconclusive are left out. Calls of active or inactive are those of the source. The call rests on the fitted dose curve; in most records, active means well fitted inhibition curve with a large enough effect; inconclusive means small, poorly fitted or top-dose-only effect; inactive means flat fitted curve, though single readings scatter.
Outcomes: 1 = active, 0 = inactive

smiles: COc1ccc(CNc2ncnc3ccc(-c4ccc5c(c4)OCO5)cc23)c(OC)c1
discrete label: 1
--
smiles: CCNc1ncc2nc(-c3cc(F)cc(F)c3)c(=O)n(CCc3ccccc3)c2n1
discrete label: 0
--
smiles: CN(C)c1ncc2nc(-c3cccs3)c(=O)n(CCc3ccccc3)c2n1
discrete label: 0
--
smiles: CN(C)c1ncc2nc(-c3cccc(C#N)c3)c(=O)n(C)c2n1
discrete label: 0
--
smiles: COCCn1c(=O)c(-c2cccs2)nc2cnc(N3CCN(C)CC3)nc21
discrete label: 0
--
smiles: N#Cc1cccc(-c2nccc(NCc3ccccc3)n2)c1
discrete label: 1
--
smiles: COc1ccc(CNc2ncncc2-c2ccccc2C)c(OC)c1
discrete label: 0
--
smiles: COc1ccccc1-c1cc(NCc2cccs2)ncn1
discrete label: 1
--
smiles: COCCNc1ncnc2ccc(-c3ccccc3C(F)(F)F)cc12
discrete label: 1
--
smiles: CCNc1ncc2nc(-c3ccccc3)c(=O)n(Cc3cccc(OC)c3)c2n1
discrete label: 0
--
smiles: COCCNc1nc(-c2cccc(NS(C)(=O)=O)c2)nc2ccccc12
discrete label: 1

----------
Target: Cytochrome P450 3A4 (Homo sapiens) (UniProt P08684)
Sequence (P08684 whole entry, looked up): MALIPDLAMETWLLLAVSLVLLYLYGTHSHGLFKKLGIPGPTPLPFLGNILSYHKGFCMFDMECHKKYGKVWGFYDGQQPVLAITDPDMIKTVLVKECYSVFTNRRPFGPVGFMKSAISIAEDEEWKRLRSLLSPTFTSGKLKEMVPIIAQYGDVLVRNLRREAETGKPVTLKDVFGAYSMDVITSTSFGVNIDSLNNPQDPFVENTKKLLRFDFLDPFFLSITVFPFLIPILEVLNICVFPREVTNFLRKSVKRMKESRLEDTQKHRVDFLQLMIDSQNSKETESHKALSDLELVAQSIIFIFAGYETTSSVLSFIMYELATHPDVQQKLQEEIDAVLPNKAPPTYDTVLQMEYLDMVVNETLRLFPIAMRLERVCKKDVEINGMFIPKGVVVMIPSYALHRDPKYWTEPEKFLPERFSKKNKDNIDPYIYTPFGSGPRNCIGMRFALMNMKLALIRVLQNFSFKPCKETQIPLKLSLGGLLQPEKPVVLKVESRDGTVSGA
Experiment: qHTS Assay for Inhibitors and Substrates of Cytochrome P450 3A4 (AID 884); further: nearly all actives have a fitted effect of over 50% in size
Conditions: recombinant CYP3A4, Luciferin-PPXE luminescence; series mostly up to 57.1 µM
Results filed as inconclusive are left out. Activity calls are given as the source filed them. Calls come from the whole dose curve; as a rule, active = well fitted inhibition curve with a large enough effect; inconclusive = small, poorly fitted or top-dose-only effect; inactive = no such curve, though single readings can be large or run the other way.
Outcomes: 1 for active, -1 for inactive

compound: N#Cc1ccc(CN2CC3(CCN(C(=O)c4cccc(F)c4)CC3)C2)cc1
discrete label: -1
//
compound: O=c1[nH]cnc2c1ncn2C1OC(CO)C(O)C1O (configuration not stated)
discrete label: -1
//
compound: COc1cccc(Cn2c(=O)c(CCc3ccccc3)nc3cncnc32)c1
discrete label: 1
//
compound: O=C(c1ccco1)N1CCC2(CC1)CN(c1ncccn1)C2
discrete label: -1
//
compound: CN(C)c1ccc(-c2cncnc2Nc2ccccc2)cc1
discrete label: 1
//
compound: COc1cc(O)c(C(=O)/C=C/c2ccc(OC)c(O)c2)c(OC)c1
discrete label: 1
//
compound: COc1ccc(-n2c(=O)c(C)nc3cncnc32)cc1
discrete label: 1

----------
Tested on: CP203
Assay: qHTS profiling for inhibitors of Plasmodium falciparum proliferation (AID 504749); further: nearly all actives have a fitted effect of over 60% in size
Conditions: P. falciparum in erythrocytes, SYBR Green DNA, 72 h; series mostly up to 12.8 µM
Results filed as inconclusive are left out. Calls of active or inactive are those of the source. The call rests on the fitted dose curve; in most records, active means well fitted inhibition curve with a large enough effect; inconclusive means small, poorly fitted or top-dose-only effect; inactive means flat fitted curve, though single readings scatter.
Possible outcomes: active, inactive

smiles: CN(N=O)C(=O)N[C@H]1[C@@H](O)[C@H](O)[C@H](CO)O[C@@H]1O
assayed system: CP203
discrete label: inactive
--
smiles: CCCN(CCC)C(=O)[C@@H](CCC(=O)O)NC(=O)c1ccccc1
assayed system: CP203
discrete label: inactive
--
smiles: COCCc1ccc(OC[C@H](O)CNC(C)C)cc1
assayed system: CP203
discrete label: inactive
--
smiles: C[N+]1(C)CCC[C@@H](OC(=O)C(O)(c2ccccc2)c2ccccc2)C1
assayed system: CP203
discrete label: inactive
--
smiles: CC1(C)O[C@@H]2C[C@H]3[C@H]4C[C@H](F)C5=CC(=O)C=C[C@@]5(C)[C@@H]4[C@H](O)C[C@]3(C)[C@]2(C(=O)CO)O1
assayed system: CP203
discrete label: inactive
--
smiles: CC(C)(O/N=C(\C(=O)N[C@@H]1C(=O)N2C(C(=O)[O-])=C(C[n+]3ccccc3)CS[C@@H]12)c1csc(N)n1)C(=O)O
assayed system: CP203
discrete label: inactive
--
smiles: NS(=O)(=O)c1cc([C@@]2(O)NC(=O)c3ccccc32)ccc1Cl
assayed system: CP203
discrete label: inactive
--
smiles: CC(=O)Nc1c(I)c(C(=O)N[C@H]2[C@@H](O)[C@H](O)[C@H](CO)O[C@@H]2O)c(I)c(N(C)C(C)=O)c1I
assayed system: CP203
discrete label: inactive
--
smiles: CCN1C(=O)N[C@@H](c2ccccc2)C1=O
assayed system: CP203
discrete label: inactive
--
smiles: CO/N=C(\C(=O)N[C@@H]1C(=O)N2C(C(=O)O)=C(COC(C)=O)CS[C@@H]12)c1csc(N)n1
assayed system: CP203
discrete label: inactive
--
smiles: C[C@@H](CCc1ccccc1)NC[C@H](O)c1ccc(O)c(C(N)=O)c1
assayed system: CP203
discrete label: inactive
--
smiles: CN[C@@H](CC(C)C)C(=O)N[C@@H]1C(=O)N[C@H](CC(N)=O)C(=O)N[C@@H]2C(=O)N[C@H]3C(=O)N[C@H](C(=O)N[C@H](C(=O)O)c4cc(O)cc(O)c4-c4cc3ccc4O)[C@H](O)c3ccc(c(Cl)c3)Oc3cc2cc(c3O[C@H]2O[C@@H](CO)[C@@H](O)[C@@H](O)[C@@H]2O[C@@H]2C[C@](C)(N)[C@H](O)[C@H](C)O2)Oc2ccc(cc2Cl)[C@@H]1O
assayed system: CP203
discrete label: inactive
--
smiles: Cc1cc(/C=C\c2ccc3cc(N(C)C)ccc3[n+]2C)c(C)n1-c1ccccc1
assayed system: CP203
discrete label: active
--
smiles: CCN[C@@H]1C[C@H](C)S(=O)(=O)c2sc(S(N)(=O)=O)cc21
assayed system: CP203
discrete label: inactive
--
smiles: CC(C)N1CCN(c2ccc(OC[C@@H]3CO[C@@](Cn4cncn4)(c4ccc(Cl)cc4Cl)O3)cc2)CC1
assayed system: CP203
discrete label: inactive
--
smiles: NC(N)=NC[C@@H]1COC2(CCCCC2)O1
assayed system: CP203
discrete label: inactive
